IC50 (Relative to Chimera) listing for selected binders.
# Target: T1, human tau (human, UniProt P10636 2-60)
# T1 construct: also called soluble human tau; human tau protein
# T1 sequence (P10636 2-60 limits assumed): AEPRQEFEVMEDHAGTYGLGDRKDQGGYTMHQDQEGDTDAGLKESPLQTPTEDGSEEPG
# Protocol summary: competition ELISA on plate-coated human tau against biotinylated HJ8.5; IC50 normalised to chimeric HJ8.5; column C2N Run 2
Recorded endpoint: IC50 (Relative to Chimera)

1) VH3/VK1 (antibody, human IgG4 S228P, kappa, V domains shown, humanized HJ8.5 variant, combination of VH3 and VK1) VH: EVQVVESGGGLVQPGGSLKLSCVVSGFTFSNYWVNWVRQAPGKGLEWVAQIRLKSDNYATHYEESVKGRFTISRDDSKNSVYLQMNSLRAEDTAIYYCTNWEDYWGQGTTVTVSS VL: DIVLTQSPDSLAVSLGERATISCRASQSVSTSRYSYIHWYQQKPGQPPKLLIKYASNLESGVPSRFSGSGSGTDFTLNIHPLEEEDFATYYCHHSWEIPLTFGQGTKLEIKR; 1.42 relative to Chimera
2) VH2/VK1 (antibody, human IgG4 S228P, kappa, V domains shown, humanized HJ8.5 variant, combination of VH2 and VK1) VH: EVKVVESGGGLVQPGGSLKLSCVVSGFTFSNYWVNWVRQAPGKGLEWVAQIRLKSDNYATHYEESVKGRFTISRDDSKSSVYLQMNSLRAEDTGIYYCTNWEDYWGQGTTVTVSS VL: DIVLTQSPDSLAVSLGERATISCRASQSVSTSRYSYIHWYQQKPGQPPKLLIKYASNLESGVPSRFSGSGSGTDFTLNIHPLEEEDFATYYCHHSWEIPLTFGQGTKLEIKR; 1.02 relative to Chimera
3) VH2/VK2 humanized anti-tau antibody (antibody, human IgG4 S228P, kappa, V domains shown, Humanized variant of HJ8.5) VH: EVKVVESGGGLVQPGGSLKLSCVVSGFTFSNYWVNWVRQAPGKGLEWVAQIRLKSDNYATHYEESVKGRFTISRDDSKSSVYLQMNSLRAEDTGIYYCTNWEDYWGQGTTVTVSS VL: DIVLTQSPDSLAVSLGERATISCRASQSVSTSRYSYIHWYQQKPGQPPKLLIKYASNLESGVPSRFSGSGSGTDFTLNIHPLEPEDFATYYCHHSWEIPLTFGQGTKLEIKR; 0.85 relative to Chimera
